From: patent USRE46585

target desc: T1, FcRn-p3 fusion protein (human, UniProt P55899 24-297; P61769 21-119)
T1 construct: baculovirus expressed; coated on ELISA wells; not shown: amino terminal part of bacteriophage p3 protein and CVDE protein
T1 sequence (P55899 24-297, chain 1 of 2): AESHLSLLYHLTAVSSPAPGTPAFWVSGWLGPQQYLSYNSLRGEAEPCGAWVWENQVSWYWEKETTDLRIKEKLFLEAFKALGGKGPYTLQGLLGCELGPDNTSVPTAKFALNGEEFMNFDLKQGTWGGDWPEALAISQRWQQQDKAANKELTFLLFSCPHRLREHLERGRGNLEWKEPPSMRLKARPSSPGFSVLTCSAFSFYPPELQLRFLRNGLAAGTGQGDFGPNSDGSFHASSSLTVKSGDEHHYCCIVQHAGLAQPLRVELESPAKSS
T1 sequence (P61769 21-119, chain 2 of 2): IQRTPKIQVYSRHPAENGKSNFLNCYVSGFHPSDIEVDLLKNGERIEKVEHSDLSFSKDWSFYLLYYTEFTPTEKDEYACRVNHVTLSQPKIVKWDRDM
protocol notes: phage ELISA pH6
Known Ratio/Fc-H of a selection of binders
Please respond with the number in fold and leave the unit unwritten.

Below, 2 binders whose answers are already recorded.
- binder: "C6A_36 (other, EU numbering) CPPCPAPELLGGPSVFLFPPKPKDTLMISRTPEVTCVVVDVSHEDPEVKFNWYVDGVEVHNAKTKPREEQYNSTYRVVSVLPVLHQDWLDGKEYKCKVSNKALPAPIEKTISKAKGQPREPQVYTLPPSRDELTKNQVSLTCLVKGFYPSDIAVEWGSNGQPENNYKTTPPVLDSDGSFFLYSKLTVDKSRWQHGNVFSCSVMHEALHYHYTQKSLSLSPGK"
  unit abbreviation: "fold"
  Ratio/Fc-H: 3.4
- binder: "C3A_39 (other, EU numbering) CPPCPVPELLGGPSVFLFPPKPKDTLMISRTPEVTCVVVDVSHEDPEVKFNWYVDGVEVHNAKTKPREEQYNSTYRVVSVLTVLHQDWLNGKEYKCKVSNKALPAPIEKTISKAKGEPREPQVYTLPPSRDELTKNQVSLTCLVKGFYPSDIAVEWESNGQPENNYKTTPPVLDSDGSFFLYSKLTVDKSRWQQGNVFSCSVMHEALHYHYTQKSLSLSPGK"
  unit abbreviation: "fold"
  Ratio/Fc-H: 1.8

query: Given T3A_30 (other, EU numbering) CPPCPAPELLGGPSVFLFPPKPKDTLMISRTPEVTCVVEDVSHEDPEVKFNWYVDGVEVHNAKTKPREEQYNSTYRVVSVLTVLHQDWLNGKEYKCKVSNKALPAPIEKTISKAKGQPREPQVYTLPPSRDELTKNQVSLTCLVKGFYPSDIVVEWESNGQPENNYKTTPPVLDSDGSFFLYSKLTVDKSRWQQGNAFSCSVMHEALHNHYTQKSLSLSPGK , state its recorded Ratio/Fc-H.
result: 1.1
